biological target: HLA-A*03:01; assay: IEDB peptide-MHC binding, purified MHC/competitive/fluorescence; filed as Kd, often an IC50 or EC50 that approximates it; bounds were set here for any values at or beyond the usual limits of such assays; details: source organism: Desulfitobacterium hafniense DCB-2
value.type: pKd
As a rule, pKd stands for the negative log10 of the concentration, concentration in M.

Qu. Param item = ALFAGDLYR ; retrieve measured pKd.
Ans. 7.89

----------
biological target: HLA-B*40:01; assay: IEDB peptide-MHC binding, purified MHC/direct/fluorescence; filed as Kd, often an IC50 or EC50 that approximates it; bounds were set here for any values at or beyond the usual limits of such assays; conditions: source organism: Mammarenavirus lassaense
value.type: pKd
As a rule, pKd stands for the negative log10 of the concentration, concentration in M.

Qu. Param item = MEGLKLLSL ; retrieve measured pKd.
Ans. 6.80

----------
biological target: HLA-B*35:01; assay: IEDB peptide-MHC binding, purified MHC/competitive/radioactivity; filed as Kd, often an IC50 or EC50 that approximates it; bounds were set here for any values at or beyond the usual limits of such assays; conditions: source organism: Dengue virus 2 Jamaica/1409/1983
pKd: −log10 of the molar value.
value.type: pKd

Qu. Param item = EPKEGTKKLM ; retrieve measured pKd.
Ans. ≤ 4.26

----------
target: HLA-B*48:01; assay: IEDB peptide-MHC binding, purified MHC/direct/fluorescence; filed as Kd, often an IC50 or EC50 that approximates it; bounds were set here for any values at or beyond the usual limits of such assays; conditions: source organism: Vibrio cholerae
value.type: Kd

[
  {
    "biopolymer.sequence": "KGHLPLLDK",
    "test.result": "≥ 20 µM"
  }
]

Attention now shifts to the item below.
Qu. Param item = AADFPGIAR ; retrieve measured Kd.
Ans. ≥ 20 µM

----------
biological target: HLA-A*26:01; experiment: IEDB peptide-MHC binding, purified MHC/competitive/fluorescence; filed as Kd, often an IC50 or EC50 that approximates it; bounds were set here for any values at or beyond the usual limits of such assays; settings: source organism: Cryptosporidium parvum Iowa II
value.type: Kd

Qu. Request - read-out Kd | tested on HLA-A*26:01 | sequence SGLPGIFIV
Ans. ≥ 20 µM

----------
biological target: HLA-B*44:02; assay: IEDB peptide-MHC binding, purified MHC/direct/fluorescence; filed as Kd, often an IC50 or EC50 that approximates it; bounds were set here for any values at or beyond the usual limits of such assays; settings: source organism: Giardia lamblia ATCC 50803
pKd: −log10 of the molar value.
value.type: pKd

Check out these entries, answers already filled in.
[
  {
    "biopolymer.sequence": "YLDMVLAFL",
    "pKd": "≤ 4.70"
  },
  {
    "biopolymer.sequence": "RTDPVIDNI",
    "pKd": "≤ 4.70"
  }
]

Attention now shifts to the item below.
Qu. Param item = DEKPKVMEG ; retrieve measured pKd.
Ans. ≤ 4.70

----------
biological target: HLA-A*01:01; test: IEDB peptide-MHC binding, purified MHC/competitive/fluorescence; filed as Kd, often an IC50 or EC50 that approximates it; bounds were set here for any values at or beyond the usual limits of such assays; conditions: source organism: Yersinia pestis Antiqua
value.type: Kd (nM)
Write the number in nM without appending the unit.

Qu. Param item = FVADSTPLY ; retrieve measured Kd.
Ans. 1.8

----------
molecular target: HLA-B*40:01; experiment: IEDB peptide-MHC binding, purified MHC/competitive/radioactivity; filed as Kd, often an IC50 or EC50 that approximates it; bounds were set here for any values at or beyond the usual limits of such assays; details: source organism: Mammarenavirus brazilense
value.type: Kd (µM)
Write the number in µM without appending the unit.

[
  {
    "biopolymer.sequence": "RELLGYCVSL",
    "units.of.measure": "µM",
    "Kd": 9.82
  }
]

Attention now shifts to the item below.
Qu. Param item = EELSTLYEAL ; retrieve measured Kd.
Ans. 1.26

----------
target: HLA-A*03:01; experiment: IEDB peptide-MHC binding, purified MHC/direct/fluorescence; filed as Kd, often an IC50 or EC50 that approximates it; bounds were set here for any values at or beyond the usual limits of such assays; settings: source organism: West Nile virus
value.type: pKd
As a rule, pKd stands for the negative log10 of the concentration, concentration in M.

Qu. Request - read-out pKd | tested on HLA-A*03:01 | sequence KSYETEYPK
Ans. 6.14

----------
target: HLA-B*51:01; assay: IEDB peptide-MHC binding, purified MHC/direct/fluorescence; filed as Kd, often an IC50 or EC50 that approximates it; bounds were set here for any values at or beyond the usual limits of such assays; settings: source organism: Entamoeba histolytica HM-1:IMSS
pKd: −log10 of the molar value.
value.type: pKd

Qu. Param item = IESNPLFPV ; retrieve measured pKd.
Ans. ≤ 4.70

----------
In this section, each of the sequences is paired with its reported Kd.
target: HLA-A*03:01; experiment: IEDB peptide-MHC binding, purified MHC/competitive/radioactivity; filed as Kd, often an IC50 or EC50 that approximates it; bounds were set here for any values at or beyond the usual limits of such assays; conditions: source organism: Vaccinia virus WR

Check out these entries, answers already filled in.
[
  {
    "biopolymer.sequence": "ISIISIRPR",
    "value.type": "Kd",
    "test.result": "≥ 24100 nM"
  },
  {
    "biopolymer.sequence": "RLLHCVTESY",
    "value.type": "Kd",
    "test.result": "72.7 nM"
  },
  {
    "biopolymer.sequence": "VLFVKKMLPK",
    "value.type": "Kd",
    "test.result": "7.21 nM"
  }
]

Qu. Param item = DLIKKSDAK ; retrieve measured Kd.
Ans. ≥ 38000 nM

Qu. Param item = LLHCVTESYK ; retrieve measured Kd.
Ans. 14.7 nM

Qu. Param item = IVPEFAKQY ; retrieve measured Kd.
Ans. ≥ 28200 nM

Qu. Param item = IVTVTTKDY ; retrieve measured Kd.
Ans. 1930 nM

Qu. Param item = DIETAIRAGY ; retrieve measured Kd.
Ans. 2480 nM

----------
molecular target: HLA-A*31:01; assay: IEDB peptide-MHC binding, purified MHC/direct/fluorescence; filed as Kd, often an IC50 or EC50 that approximates it; bounds were set here for any values at or beyond the usual limits of such assays; details: source organism: Vibrio parahaemolyticus
pKd: −log10 of the molar value.
value.type: pKd

Check out these entries, answers already filled in.
[
  {
    "biopolymer.sequence": "EEDLPVTWR",
    "test.result": "≤ 4.70"
  },
  {
    "biopolymer.sequence": "GRNSRFPDK",
    "test.result": "≤ 4.70"
  }
]

Attention now shifts to the item below.
Qu. Param item = ALSMGINTV ; retrieve measured pKd.
Ans. ≤ 4.70

----------
biological target: HLA-B*83:01; test: IEDB peptide-MHC binding, purified MHC/competitive/fluorescence; filed as Kd, often an IC50 or EC50 that approximates it; bounds were set here for any values at or beyond the usual limits of such assays; settings: source organism: Pan troglodytes
value.type: Kd

Qu. Param item = VMPPRTLLL ; retrieve measured Kd.
Ans. ≥ 5 µM

----------
target: HLA-A*31:01; experiment: IEDB peptide-MHC binding, purified MHC/competitive/fluorescence; filed as Kd, often an IC50 or EC50 that approximates it; bounds were set here for any values at or beyond the usual limits of such assays; conditions: source organism: Yellow fever virus
value.type: pKd
As a rule, pKd stands for the negative log10 of the concentration, concentration in M.

Qu. Param item = KTHESHLVR ; retrieve measured pKd.
Ans. 7.67

----------
biological target: HLA-B*08:01; experiment: IEDB peptide-MHC binding, purified MHC/direct/fluorescence; filed as Kd, often an IC50 or EC50 that approximates it; bounds were set here for any values at or beyond the usual limits of such assays; details: source organism: Shigella flexneri
value.type: Kd

Qu. Param item = VVISKKDTY ; retrieve measured Kd.
Ans. ≥ 20 µM

----------
target: HLA-A*11:01; test: IEDB peptide-MHC binding, purified MHC/competitive/radioactivity; filed as Kd, often an IC50 or EC50 that approximates it; bounds were set here for any values at or beyond the usual limits of such assays; conditions: source organism: Mammarenavirus guanaritoense
value.type: pKd
As a rule, pKd stands for the negative log10 of the concentration, concentration in M.

Qu. Param item = TNFESFTVK ; retrieve measured pKd.
Ans. 5.84

----------
molecular target: HLA-A*03:01; test: IEDB peptide-MHC binding, purified MHC/competitive/radioactivity; filed as Kd, often an IC50 or EC50 that approximates it; bounds were set here for any values at or beyond the usual limits of such assays; details: source organism: Dengue virus 2 Peru/IQT2913/1996
value.type: pKd
As a rule, pKd stands for the negative log10 of the concentration, concentration in M.

Qu. Param item = RMLINRFTMR ; retrieve measured pKd.
Ans. 7.06
